B1: library; numbered along this chain (parent)
chain: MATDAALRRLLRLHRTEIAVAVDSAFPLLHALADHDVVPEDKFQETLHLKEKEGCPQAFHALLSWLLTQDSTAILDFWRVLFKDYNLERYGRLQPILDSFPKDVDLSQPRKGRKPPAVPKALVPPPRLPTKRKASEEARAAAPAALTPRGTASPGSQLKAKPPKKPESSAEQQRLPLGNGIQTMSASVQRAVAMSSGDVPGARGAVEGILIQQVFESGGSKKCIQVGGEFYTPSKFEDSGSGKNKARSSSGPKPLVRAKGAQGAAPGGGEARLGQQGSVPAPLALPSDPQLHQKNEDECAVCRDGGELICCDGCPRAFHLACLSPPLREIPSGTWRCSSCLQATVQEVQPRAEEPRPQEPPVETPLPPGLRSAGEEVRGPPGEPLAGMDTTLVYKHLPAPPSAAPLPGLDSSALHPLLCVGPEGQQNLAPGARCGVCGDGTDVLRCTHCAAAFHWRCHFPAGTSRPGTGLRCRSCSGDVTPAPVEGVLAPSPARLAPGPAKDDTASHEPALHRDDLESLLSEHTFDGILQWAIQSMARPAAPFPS

Variants of: B1
Assay: AIRE transcriptional activation functional score (insulin promoter-GFP; nonsense median 0, synonymous median 1) (normalised score); higher = higher AIRE activity (more reporter activation)
Conditions: with insulin promoter-GFP reporter in HEK293
Readout name: AIRE transcriptional activation functional score

> print(dat)
    residue.change  experimental.value
 1           N295D               0.921
 2            I96C              -0.194
 3           L444S                1.09
 4           P124S                1.08
 5           E237W               0.832
 6           T468N                1.08
 7           V206C               0.542
 8           W335A                 1.3
 9            I74D               0.058
10           G112N               0.726
11           A261P                1.06
12           L106S               -1.04
13            H48N               0.738
14           P368I                1.29
15           L529M              -0.503
16           D514C               0.246
17           A413V               0.931
18            L93F               0.229
19            H35C              -0.102
20           A205K                1.17
21           Q182D               0.345
22           S372D                1.06
23           T468E                0.46
24           P289S                 1.3
25            H14P              -0.256
26           S135F                1.13
27           R174M               0.283
28           V188R                0.52

From: the supplement of paper PMC12667976
